Quick list: IC50 per entry.
molecular target: human FASN (Homo sapiens); construct: purified from SKBR3 cells using procedures modified from those in Jayakumar et al; endogenous in cells; host or cells: SKBR3 cells (ATCC); endogenous FASN purified in house by ammonium sulfate precipitation and mono Q chromatography; assay: FASN Scintillation Proximity Flashplate assay; type: biochemical; conditions: IC50 class, FASN Scintillation Proximity Flashplate Assay (symbols with asterisk); human FASN purified from SKBR3 cells

| record_smiles | test_target | experimental_result |
| --- | --- | --- |
| CCN(C(=O)n1nnc(-c2ccccc2CCc2ccccc2)c1C#N)c1ccccc1 | human FASN (Homo sapiens) | < 200 nM |

Inquiry: # input compound: "CC(C)N(C(=O)n1nnc(-c2c(F)cccc2F)c1C#N)c1cccc(C(=O)O)c1" ; wanted: its IC50
Reply text: < 200 nM

====

target: human FASN (Homo sapiens); construct: purified from SKBR3 cells using procedures modified from those in Jayakumar et al; endogenous in cells; host or cells: SKBR3 cells (ATCC); endogenous FASN purified in house by ammonium sulfate precipitation and mono Q chromatography; experiment: FASN NADPH consumption assay; format: biochemical; conditions: IC50 class, FASN NADPH Consumption Assay (symbols without asterisk); human FASN purified from SKBR3 cells
Quick list: IC50 per entry.

Illustrative cases are given below, each with its answer.
| molecule | experimental_result |
| --- | --- |
| CCOC(=O)c1c(C2CC3C=CC2C3)nnn1C(=O)N1CCCC2CCCCC21 (stereo not drawn) | > 1 µM |
| C[C@@H](NC(=O)c1ccccc1-c1nnn(C(=O)N2CCCC3CCCCC32)c1C#N)c1ccccc1 (stereo partly drawn) | 0.2 to 0.5 µM |
| C[C@H](NC(=O)c1ccccc1-c1nnn(C(=O)N2CCCC3CCCCC32)c1C#N)c1ccccc1 (stereo partly drawn) | < 0.2 µM |
| CCN(C(=O)n1nnc(-c2c(F)cccc2Cl)c1C#N)c1ccccc1 | < 0.2 µM |
| O=C(N1CCCC2CCCCC21)n1nnc2ncccc21 (stereo not drawn) | > 1 µM |
| CCN(C(=O)n1nnc(-c2c(F)cccc2F)c1C#N)c1ccccc1 | < 0.2 µM |

Inquiry: # input molecule: "CCN(C(=O)n1cc(-c2ccccc2Cl)nn1)c1ccccc1F" ; wanted: its IC50
Reply text: > 1 µM

Inquiry: # input molecule: "CCN(C(=O)n1nnc2ccccc21)c1ccccc1F" ; wanted: its IC50
Reply text: 0.5 to 1 µM

Inquiry: # input molecule: "CCN(C(=O)n1nnc2ncccc21)c1ccccc1" ; wanted: its IC50
Reply text: 0.5 to 1 µM

Inquiry: # input molecule: C[C@H]1[C@H](NC(=O)c2c(-c3ccccc3Oc3ccccc3)nnn2C(=O)N2CCCC3CCCCC32)C[C@H]2C[C@@H]1C2(C)C (stereo partly drawn) ; wanted: its IC50
Reply text: > 1 µM

====

target: human FASN (Homo sapiens, UniProt P49327); construct: purified from SKBR3 cells using procedures modified from those in Jayakumar et al; endogenous in cells; host or cells: SKBR3 cells (ATCC); endogenous FASN purified in house by ammonium sulfate precipitation and mono Q chromatography; assay: FASN NADPH consumption assay; type: biochemical; details: IC50 class, FASN NADPH Consumption Assay (symbols without asterisk); human FASN purified from SKBR3 cells
Sequence (P49327 whole entry): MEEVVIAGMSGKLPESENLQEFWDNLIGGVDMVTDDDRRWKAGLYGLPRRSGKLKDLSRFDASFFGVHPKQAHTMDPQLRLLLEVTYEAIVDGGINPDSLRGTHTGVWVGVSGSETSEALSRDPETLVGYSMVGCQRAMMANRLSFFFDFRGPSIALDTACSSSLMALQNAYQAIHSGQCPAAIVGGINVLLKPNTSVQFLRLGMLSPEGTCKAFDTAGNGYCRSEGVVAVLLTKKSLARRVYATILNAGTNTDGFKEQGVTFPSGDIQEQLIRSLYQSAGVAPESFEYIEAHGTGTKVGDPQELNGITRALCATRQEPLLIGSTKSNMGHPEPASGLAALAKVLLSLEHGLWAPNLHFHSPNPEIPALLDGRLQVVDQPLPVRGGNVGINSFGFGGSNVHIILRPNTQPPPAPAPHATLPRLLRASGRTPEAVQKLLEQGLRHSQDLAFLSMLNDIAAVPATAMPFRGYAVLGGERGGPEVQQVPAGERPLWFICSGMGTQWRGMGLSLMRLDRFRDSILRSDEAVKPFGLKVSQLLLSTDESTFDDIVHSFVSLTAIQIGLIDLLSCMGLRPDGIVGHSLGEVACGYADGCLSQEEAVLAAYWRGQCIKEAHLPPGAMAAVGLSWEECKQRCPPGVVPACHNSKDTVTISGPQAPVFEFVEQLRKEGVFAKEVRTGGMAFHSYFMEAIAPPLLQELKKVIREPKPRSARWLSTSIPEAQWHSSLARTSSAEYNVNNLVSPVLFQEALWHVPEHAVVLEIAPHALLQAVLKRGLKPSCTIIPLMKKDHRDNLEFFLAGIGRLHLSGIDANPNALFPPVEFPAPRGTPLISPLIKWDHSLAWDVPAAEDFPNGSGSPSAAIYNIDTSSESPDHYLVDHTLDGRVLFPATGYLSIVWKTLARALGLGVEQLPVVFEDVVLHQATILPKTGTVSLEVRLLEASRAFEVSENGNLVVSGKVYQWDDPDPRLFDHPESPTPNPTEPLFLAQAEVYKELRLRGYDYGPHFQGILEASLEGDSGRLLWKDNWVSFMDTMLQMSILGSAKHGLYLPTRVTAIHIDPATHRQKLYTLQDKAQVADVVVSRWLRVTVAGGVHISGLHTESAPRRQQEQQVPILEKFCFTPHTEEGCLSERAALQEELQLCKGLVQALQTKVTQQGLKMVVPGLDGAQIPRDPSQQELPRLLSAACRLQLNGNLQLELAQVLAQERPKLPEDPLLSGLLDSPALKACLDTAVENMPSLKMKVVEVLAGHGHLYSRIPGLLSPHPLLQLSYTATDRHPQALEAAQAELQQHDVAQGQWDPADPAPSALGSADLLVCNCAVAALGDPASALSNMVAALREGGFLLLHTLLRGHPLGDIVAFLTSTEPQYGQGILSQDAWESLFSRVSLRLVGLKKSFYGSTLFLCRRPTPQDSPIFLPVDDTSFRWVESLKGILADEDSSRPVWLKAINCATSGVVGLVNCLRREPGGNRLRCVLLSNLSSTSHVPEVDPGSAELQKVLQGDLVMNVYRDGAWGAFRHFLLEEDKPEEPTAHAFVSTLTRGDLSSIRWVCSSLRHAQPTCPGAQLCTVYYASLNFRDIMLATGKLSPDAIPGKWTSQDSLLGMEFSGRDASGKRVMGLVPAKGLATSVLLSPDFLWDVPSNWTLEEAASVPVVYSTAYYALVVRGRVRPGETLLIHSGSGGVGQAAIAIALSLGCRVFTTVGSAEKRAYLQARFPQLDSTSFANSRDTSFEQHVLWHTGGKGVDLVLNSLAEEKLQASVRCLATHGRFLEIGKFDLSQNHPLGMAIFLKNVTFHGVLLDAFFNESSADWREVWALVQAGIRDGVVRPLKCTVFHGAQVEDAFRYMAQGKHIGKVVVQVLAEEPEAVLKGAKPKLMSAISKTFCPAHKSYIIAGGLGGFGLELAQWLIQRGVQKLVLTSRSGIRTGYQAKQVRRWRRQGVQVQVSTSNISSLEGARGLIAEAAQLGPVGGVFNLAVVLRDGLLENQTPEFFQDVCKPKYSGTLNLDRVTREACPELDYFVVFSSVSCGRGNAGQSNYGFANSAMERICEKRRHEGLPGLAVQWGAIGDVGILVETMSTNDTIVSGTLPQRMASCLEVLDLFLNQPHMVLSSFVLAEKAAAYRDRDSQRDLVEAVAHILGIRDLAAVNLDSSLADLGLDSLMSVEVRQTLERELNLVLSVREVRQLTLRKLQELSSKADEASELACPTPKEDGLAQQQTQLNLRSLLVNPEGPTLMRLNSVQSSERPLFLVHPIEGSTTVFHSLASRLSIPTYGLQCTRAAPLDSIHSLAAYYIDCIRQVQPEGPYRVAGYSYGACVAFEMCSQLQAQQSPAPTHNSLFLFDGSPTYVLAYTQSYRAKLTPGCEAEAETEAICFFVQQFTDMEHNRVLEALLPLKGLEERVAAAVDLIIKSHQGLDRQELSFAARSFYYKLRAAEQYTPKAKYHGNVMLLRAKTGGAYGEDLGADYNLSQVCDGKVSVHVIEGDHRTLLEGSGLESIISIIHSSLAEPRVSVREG
pIC50: −log10 of the molar value.
experimental_readout: pIC50

Illustrative cases are given below, each with its answer.
| molecule | pIC50 |
| --- | --- |
| CCN(C(=O)n1nncc1-c1ccccc1Cl)c1ccccc1F | < 6.00 |
| CCOC(=O)c1c(-c2ccccc2Oc2ccccc2)nnn1C(=O)N(CC)c1ccccc1 | 6.00 to 6.30 |

Inquiry: # input molecule: "CCN(C(=O)n1nnc(-c2c(F)cccc2Cl)c1C#N)c1ccccc1F" ; wanted: its pIC50
Reply text: > 6.70

Inquiry: # input molecule: C[C@@H]1[C@@H](NC(=O)c2ccccc2-c2nnn(C(=O)N3CCCC4CCCCC43)c2C#N)C[C@@H]2C[C@H]1C2(C)C (some centres unmarked) ; wanted: its pIC50
Reply text: 6.00 to 6.30

Inquiry: # input molecule: N#Cc1c(-c2c(Cl)cccc2Cl)nnn1C(=O)N1CCCC2CCCCC21 (centres unmarked) ; wanted: its pIC50
Reply text: 6.30 to 6.70
